target: H5 HA A/VN/1203/04 (on pseudotypes and on infectious virus) (influenza A virus A/VN/1203/04 (H5N1)); experiment: cell-based or functional assay
PARAMETER MEASURED: Neutralization of HA-pseudotypes (IC90) (µg/mL)
Output spec: scalar in µg/mL, unitless text.

Sample answers from the record:
# BINDER, RESULT UNIT, Neutralization of HA-pseudotypes (IC90)
records = [
    ("FC6 (antibody, V domains shown) VH: QGQLVQSGAEVKKSGSSVKVSCKTSGGTFNSHAISWVRQAPGQGLEWIGGIIPMFGTTNYAQKLKGRIAITADQLPTTAYLELSSLRSEDTAVYYCARGQRYYYDRDGMDVWGQGTMVTVSS VL: EIVMTQTPLSLSVTPGQPASISCRSSQSLLHSDGKTYLYWYLQKPGQPPQLLISEVFNRFSGVPDRFSGSGSGTDFTLKISRVEAEDVGVYYCMQSLQLPLTFGGGTKVEIK", "µg/mL", 0.096),
    ("FE43 (antibody, V domains shown) VH: QVHLVQSGAEVKKPGSSVRLSCSASGGPFSGFAISWLRQAPGQGLEWLGGISAVFGTATYAQKFQGRVTITADQFTSTSHMDLSRLTYDDTAVYYCARSGGYLPQNNWIDPWGQGTLVIVSS VL: DIVMTQTPLSLSVTPGQPASISCKSSQSLLHSDGKTYLYWYLQKPGQSPQLLIYEVSNRFSGVPDRFSGSGSGTDFTLKISRVEAEDVGVYYCMQNILLPLTFGGGTKVEIK", "µg/mL", 0.146),
    ("FE53 (antibody, V domains shown) VH: QVQLVQSGAEVKKPGSSVKVSCKASGVTSSNYPITWVRQAPGQGLEWMGGVLPLFGVTNYAQKFQGRVTISADKSTNTAYMELSSLRSEDTAVYYCARGKRPGYCSGGVCSSDYWGQGTLVTVSS VL: DIQMTQSPSSLSASVGDRVSITCQASQDISRYLNWYQQKPGEAPKLLIYDASNLETGVPSRFSGSGSGTDFTFTISSLQPEDIATYFCQQYGYLPLTFGPGTKVDSK", "µg/mL", 0.098),
]

Switching to the query record.
Ask: Tell me the measured Neutralization of HA-pseudotypes (IC90) of FB139 (antibody, V domains shown) VH: QVQLVQSGAEVKKAGSSVKVSCQSSGVTFSMYAVSWVRQAPGQGLEWMGGIIPLFGTTTYAQKFEGRLTITADTSTNMAYLELRSLRSEDTAVYFCARAGTTVTRFNWFDPWGQGTLVTVSS VL: EVVLTQSPGTLSLSPGQRATLSCRASQSVSSSYLAWYQQKPGQAPRLLIYDASNRATGIPDRFSGSGSGTDFTLTISRLEPEDFAVYYCQQYGSSPYTFGQGTKLEIK , please.
Result: 0.034
